Data credit: PubChem BioAssay (NCI)

Catalogue of GI50 readings, one per entry.
- Tested on: HOP-62 NSCLC
- experimental_protocol: NCI tumour cell line growth inhibition, 48 h
measurement_name: GI50

compound=CC12CCC3(CCC(=O)NCCCNc4ccnc5cc(Cl)ccc45)[C@@](C)(OO[C@]3(C)O1)O2 target_or_system="HOP-62 NSCLC" measurement_name=GI50 reported_measurement="1410 nM"
compound="N#CC1=C(c2cccs2)Nc2c(c(-c3ccccc3)nn2-c2ccccc2)C12C(=O)Nc1ccccc12 (stereo not given)" target_or_system="HOP-62 NSCLC" measurement_name=GI50 reported_measurement="17000 nM"
compound="CN(C)CCOc1ccc(C(=O)C2[C@H](c3ccc(Cl)cc3)[C@@H](c3ccccc3)NC23C(=O)Nc2ccc(Cl)cc23)cc1 (stereo not given in full)" target_or_system="HOP-62 NSCLC" measurement_name=GI50 reported_measurement="12700 nM"
compound=C=CC[Se]C(=O)c1cncc(C(=O)[Se]CC=C)c1 target_or_system="HOP-62 NSCLC" measurement_name=GI50 reported_measurement="525 nM"
compound=Cc1ccc(Nc2nnc(-c3c[nH]c4ccccc34)o2)c(C)c1 target_or_system="HOP-62 NSCLC" measurement_name=GI50 reported_measurement="475 nM"
